Reported Soybean plant response rating values are given for each entry in this list.
# Test system: soybean
# Method Notes: Test C pre-/postemergence herbicide test
# Type: in vivo, Glycine max
# Condition Info: Postemergence, 500 g ai/ha; scale 0 to 100

Molecule Smiles	Soybean plant response rating
C#CCNC(=O)c1cccc(NC(=O)c2cc(C(C)(C)C)nn2CC)n1	70
CCn1nc(C(C)(C)C)cc1C(=O)Nc1cccc(C(=O)OCCF)c1	40
CCNC(=O)c1cccc(NC(=O)c2cc(C(C)(C)C)nn2CC(F)(F)F)c1	80
CCNC(=O)c1cccc(NC(=O)c2cc(C(C)(C)C)nn2CC)n1	90
C=CCNC(=O)c1cccc(NC(=O)c2cc(C(C)(C)C)nn2C)n1	90

###

# System: cocklebur
# Method Notes: Test B pre-/postemergence herbicide test
# Assay type: in vivo, Xanthium strumarium
# Condition Info: postemergence, 125 g ai/ha; visual rating, scale 0 (no effect) to 100 (complete control)

Compound	Cocklebur plant response rating
C#CCNC(=O)c1cc(NC(=O)c2cc(C(C)(C)C)nn2CC)ccn1 [Compound 283]	0
C=CCn1nc(C(C)(C)C)cc1C(=O)Nc1cccc(C(=O)NCC)c1 [Compound 56]	80
CCn1nc(C(C)(C)C)cc1C(=O)Nc1cc(C(=O)NCC2CC2)ccn1 [Compound 155]	60
CCNC(=O)c1cccc(NC(=O)c2nn(C(C)(C)C)cc2C(F)(F)F)c1 [Compound 170]	0
CCOC(=O)c1cc(NC(=O)c2cc(C(C)(C)C)nn2CC)ccc1OCC [Compound 95]	60

###

# Test system: Surinam grass
# Method Notes: Test B pre-/postemergence herbicide test
# Type: in vivo, Urochloa decumbens
# Condition Info: 500 g ai/ha; visual rating 0-100, 0 no effect, 100 complete control; preemergence
Measured Plant response rating, Surinam Grass of individual entries

Molecule	Plant response rating, Surinam Grass
CCc1nc(C(C)(C)C)sc1C(=O)Nc1cccc(C(=O)NCC2CC2)c1 [Compound 212]	70
CCOc1cccc(NC(=O)c2cn(C(C)(C)C)nc2C)c1 [Compound 190]	10
CC(=O)c1cccc(NC(=O)c2sc(C(C)(C)C)nc2C)c1 [Compound 196]	0
CCOC(=O)c1cc(NC(=O)c2cc(C(C)(C)C)nn2CC)ccc1OCC [Compound 95]	70
CCN(CC)C(=O)c1cccc(NC(=O)c2sc(C(C)(C)C)nc2C)c1 [Compound 199]	70
Cn1nc(C(C)(C)C)cc1C(=O)Nc1cccc(C#N)c1 [Compound 121]	20
CCNC(=O)c1cccc(NC(=O)c2nn(C(C)(C)C)cc2C(F)(F)F)c1 [Compound 170]	30
CCc1nc(C(C)(C)C)sc1C(=O)Nc1cccc(C(=O)NCCF)c1 [Compound 209]	50
CC(C)(C)c1cc(C(=O)Nc2cccc(SC(F)(F)F)c2)n(CCF)n1 [Compound 132]	70
CCn1nc(C(C)(C)C)cc1C(=O)Nc1ccc(OC)c(C(=O)OC(C)C)c1 [Compound 101]	30

###

# Test system: Surinam grass
# Method Notes: Test B pre-/postemergence herbicide test
# Type: in vivo, Urochloa decumbens
# Condition Info: postemergence, 500 g ai/ha; scale 0 to 100, 0 is no effect, 100 is complete control
Reported values of Surinam Grass plant response rating for individual entries
Parameter Measured: Surinam Grass plant response rating

Molecule	Experimental Result
CCNC(=O)c1cccc(NC(=O)c2nn(C(C)C)nc2CC)c1	20
CCn1nc(C(C)(C)C)cc1C(=O)Nc1nc(C(=O)N2CC=CC2)ccc1F	20
CC(=NO)c1cccc(NC(=O)c2cc(C(C)(C)C)n[nH]2)c1	0
C=CCNC(=O)c1cccc(NC(=O)c2cc(C(C)(C)C)nn2C)n1	20
C=CCN(CC=C)C(=O)c1cncc(NC(=O)c2cc(C(C)(C)C)nn2CC)c1	20
CCN(CC)C(=O)c1ccc(F)c(NC(=O)C2CC(C(C)(C)C)=NN2CC)c1 (racemic)	20
CCNC(=O)c1cc(NC(=O)c2cc(C(C)(C)C)nn2CC)ccn1	20
C#CCNC(=O)c1cncc(NC(=O)c2cc(C(C)(C)C)nn2CC)n1	0

Reference source: patent US20060069132A1
